Assay Target: transthyretin (TTR^WT) (Homo sapiens, UniProt P02766)
Measure: Kd (nM)
Express your answer in nM, writing the number without its unit.

Supply reported Kd belonging to this compound: O=S(=O)(F)Oc1ccc(-c2nnc(-c3cc(Cl)c(O)c(Cl)c3)o2)cc1
2
